The reported numbers originate from PubChem BioAssay (NCATS).

Experiment: BET inhibitor-based combinations targeting novel dependencies in MECOM-rearranged (r) AML: HNT-34 cell line (AID 2202234); further: nearly all actives have a fitted effect of over 35% in size
Settings: HNT-34 AML viability, CellTiter-Glo luminescence, 48 h; series mostly up to 46 µM
Inconclusive results are not listed. The source made the active and inactive calls. The call rests on the fitted dose curve; in most records, active means well fitted inhibition curve with a large enough effect; inconclusive means small, poorly fitted or top-dose-only effect; inactive means no such curve, though single readings can be large or run the other way.
Response enum: active, inactive

Task item: Record request — test call for "CC(C)c1cc(C(C)C)c(CC(=O)NS(=O)(=O)Oc2c(C(C)C)cccc2C(C)C)c(C(C)C)c1"
Reply: active

Task item: Record request — test call for "COc1ccc2c(c1)c(CC(=O)O)c(C)n2C(=O)c1ccc(Cl)cc1"
Reply: inactive

Task item: Record request — test call for "Cc1cc(Cl)ccc1OCCCC(=O)NO"
Reply: active

Task item: Record request — test call for "CC(=O)N1CCN(CCOc2ccc(C3CCN(C4=Nn5c(nnc5C(F)(F)F)CC4)CC3)cc2)CC1"
Reply: inactive

Task item: Record request — test call for CC(S)C(=O)NCC(=O)O (stereo not given)
Reply: inactive

###

Experiment: BET inhibitor-based combinations targeting novel dependencies in MECOM-rearranged (r) AML: AML-194 cell line (AID 2202237; further: nearly all actives have a fitted effect of over 40% in size)
Conditions: AML-194 (MECOM-r AML) viability, CellTiter-Glo, 48 h; series mostly up to 46 µM
Results filed as inconclusive are left out. Active and inactive are the calls of the source. Calls come from the whole dose curve; as a rule, active = well fitted inhibition curve with a large enough effect; inconclusive = small, poorly fitted or top-dose-only effect; inactive = flat fitted curve, though single readings scatter. Residues, ends and D or L forms follow the SMILES beside them.
Response enum: active, inactive

Task item: Record request — test call for "CCCc1cc(=O)[nH]c(=S)[nH]1"
Reply: inactive

Task item: Record request — test call for COC(=O)[C@H](Cc1ccccc1)NC(=O)[C@@H](N)CC(=O)O (H-Asp-Phe-OMe)
Reply: inactive

Task item: Record request — test call for "C[C@@H]1O[C@@H](O[C@@H]2\C=C/C=C\C=C/C=C\C[C@H](C)OC(=O)/C=C\[C@H]3O[C@@H]3C[C@H](O)C[C@]3(O)C[C@@H](O)[C@@H](C(=O)O)[C@H](C2)O3)[C@H](O)[C@H](N)[C@@H]1O"
Reply: inactive

Task item: Record request — test call for "O=C1CCc2ccc(OCCCCN3CCN(c4cccc(Cl)c4Cl)CC3)cc2N1"
Reply: active

Task item: Record request — test call for "Cc1c(NC(=O)c2ccc(C(C)(C)C)cc2)cccc1-c1cn(C)c(=O)c(Nc2ccc(C(=O)N3CCOCC3)cc2)n1"
Reply: inactive

###

Test: BET inhibitor-based combinations targeting novel dependencies in MECOM-rearranged (r) AML: AML-191 cell line (AID 2202236; further: nearly all actives have a fitted effect of over 35% in size)
Details: AML-191 viability, CellTiter-Glo luminescence, 48 h; series mostly up to 46 µM
Records with an inconclusive call do not appear. Calls of active or inactive are those of the source. Calls follow the shape of the dose curve; as a rule, active = well fitted inhibition curve with a large enough effect; inconclusive = small, poorly fitted or top-dose-only effect; inactive = flat fitted curve, though single readings scatter. Non-standard residues stand in square brackets, D forms with d. Residues, ends and D or L forms follow the SMILES beside them. *: point of attachment. Nva = CCC[C@H](N)C(=O)O; Cbz = O=C(OCc1ccccc1)*
Response enum: active, inactive

Task item: Record request — test call for "O=C(Nc1nc2cccc(-c3ccc(CN4CCS(=O)(=O)CC4)cc3)n2n1)C1CC1"
Reply: active

Task item: Record request — test call for "CCOC(=O)Nc1ccc(NCc2ccc(F)cc2)nc1N"
Reply: inactive

Task item: Record request — test call for COc1ccccc1N1CCN(CC(O)COc2cccc3ccccc23)CC1 (stereo not given)
Reply: active

Task item: Record request — test call for "COc1ccc(C[C@@H](C)[C@@H](C)Cc2ccc(OC)c(OC)c2)cc1OC"
Reply: active

Task item: Record request — test call for Nc1nc(N)c2nc(CNc3ccc(C(=O)NC(CCC(=O)O)C(=O)O)cc3)cnc2n1 (stereo not given)
Reply: inactive

Task item: Record request — test call for "Nc1nc(-c2nn(Cc3ccccc3F)c3ncccc23)nc(N)c1N1CCOCC1"
Reply: inactive

Task item: Record request — test call for "COc1ccc(CNC(=O)Nc2ncc([N+](=O)[O-])s2)cc1"
Reply: active

Task item: Record request — test call for "O=C1NC(=O)C(c2cnc3ccccn23)=C1c1cn2c3c(cccc13)CN(C(=O)N1CCOCC1)CC2"
Reply: active

Task item: Record request — test call for "CN1C(=O)c2sccc2N(C)c2nc(Nc3ccc(S(N)(=O)=O)cc3)ncc21"
Reply: active

Task item: Record request — test call for O=C(O)C(O)Cc1ccc(O)c(O)c1 (stereo not given)
Reply: inactive

Task item: Record request — test call for "Nc1ncnc2ccccc12"
Reply: inactive

Task item: Record request — test call for "Cc1cc(Nc2cc(N3CCN(C)CC3)nc(Sc3ccc(NC(=O)C4CC4)cc3)n2)n[nH]1"
Reply: active

Task item: Record request — test call for "CS(=O)(=O)Oc1ccc2c(NC(N)=O)c(C(=O)c3ccc(Cl)cc3Cl)oc2c1"
Reply: inactive

Task item: Record request — test call for "COc1cc2c(cc1Cc1cccc(Cl)c1F)c(=O)c(C(=O)O)cn2[C@H](CO)C(C)C"
Reply: active

Task item: Record request — test call for "Nc1c2c(nc3ccccc13)CCCC2"
Reply: inactive

Task item: Record request — test call for CCNC(=O)CCC/C=C\C[C@@H]1[C@@H](/C=C/C(O)CCc2ccccc2)[C@@H](O)C[C@@H]1O (stereo not given in full)
Reply: inactive

Task item: Record request — test call for "O=C([C@@H](Cc1cccc(C(F)(F)F)c1)NS(=O)(=O)c1cc(F)c2c(c1)CCNC2)N1CCCC1"
Reply: inactive

Task item: Record request — test call for "Cc1c(C(=O)N2CCOc3ccc(-c4ccc(N)nc4)cc3C2)ccc(S(C)(=O)=O)c1F"
Reply: active

Task item: Record request — test call for "CNC(=O)c1cccc2cc(Oc3ccnc4cc(OCC5(N)CC5)c(OC)cc34)ccc12"
Reply: active

Task item: Record request — test call for "CC1(C)[C@@H](O)CC[C@]2(C)[C@H]3C(=O)C=C4[C@@H]5C[C@@](C)(C(=O)O)CC[C@]5(C)CC[C@@]4(C)[C@]3(C)CC[C@@H]12"
Reply: inactive

Task item: Record request — test call for "O=C(/C=C/C=C/c1ccc2c(c1)OCO2)N1CCCCC1"
Reply: inactive

Task item: Record request — test call for "Cc1ccccc1-n1c(Cn2nc(-c3cccc(O)c3)c3c(N)ncnc32)nc2cccc(C)c2c1=O"
Reply: active

Task item: Record request — test call for "NC(=O)OCC(COC(N)=O)c1ccccc1"
Reply: inactive

Task item: Record request — test call for "O=C(Nc1cccnc1)N1CCC(Cc2cccc(Oc3ccc(C(F)(F)F)cn3)c2)CC1"
Reply: active

Task item: Record request — test call for "O=C(O)c1nc(=O)[nH]c(=O)[nH]1"
Reply: inactive

Task item: Record request — test call for "C[C@]12CC[C@@H]3c4ccc(O)cc4CC[C@H]3[C@H]1[C@@H](O)[C@@H](O)[C@H]2O"
Reply: inactive

Task item: Record request — test call for "c1ccc2c(-c3cnn4cc(-c5ccc(N6CCNCC6)cc5)cnc34)ccnc2c1"
Reply: active

Task item: Record request — test call for CCN(CC)CCCC(C)Nc1nc(C)cc(Nc2ccc3nc(C)cc(N)c3c2)n1 (stereo not given)
Reply: inactive

Task item: Record request — test call for Cc1cc(C(C)Nc2ccccc2)c2nc(N3CCOCC3)cc(=O)n2c1 (stereo not given)
Reply: active

Task item: Record request — test call for C[C@]12CC[C@H](O)CC1=CCC1C2CC[C@]2(C)C(n3cnc4ccccc43)=CCC12 (stereo not given in full)
Reply: active

Task item: Record request — test call for "CC(C)(C)OC(=O)N[C@H]1CCCCCC=C[C@@H]2C[C@@]2(C(=O)NS(=O)(=O)C2CC2)NC(=O)[C@@H]2C[C@@H](OC(=O)N3Cc4cccc(F)c4C3)CN2C1=O"
Reply: inactive

Task item: Record request — test call for "Cn1cc(-c2ccc(S(=O)(=O)n3ccc(/C=C/C(=O)Nc4ccccc4N)c3)cc2)cn1"
Reply: active

Task item: Record request — test call for "Cn1cc(-c2c[nH]c3ncnc(N4CCOCC4)c23)cn1"
Reply: active

Task item: Record request — test call for CCC[C@@H](C=O)NC(=O)[C@H](CC(C)C)NC(=O)[C@H](CC(C)C)NC(=O)OCc1ccccc1 (Cbz-Leu-Leu-[Nva]-aldehyde)
Reply: active

Task item: Record request — test call for "Nc1ccc(C(=O)Nc2cccc(-c3nc(N4CCOCC4)c4oc5ncccc5c4n3)c2)cn1"
Reply: active

Task item: Record request — test call for "COc1ccccc1N1CCN(CCN(C(=O)C2CCCCC2)c2ccccn2)CC1"
Reply: inactive

Task item: Record request — test call for "CN(C)c1nc(N(C)C)nc(N(C)C)n1"
Reply: inactive

Task item: Record request — test call for "CC(C)CC(=O)Nc1n[nH]c2c1CN(C(=O)C1CCN(C)CC1)C2(C)C"
Reply: active

Task item: Record request — test call for "Cn1ncc2cc(-c3cnc(N)c(Cl)c3N3CCC4(CCNC4=O)CC3)ccc21"
Reply: active

Task item: Record request — test call for "Nc1nc2c(ncn2COCCO)c(=O)[nH]1"
Reply: inactive
